- Tested on: NCI-H460
- assay_details: NCI tumour cell line growth inhibition, 48 h
The source made the active and inactive calls. Cut-off read from the data, not from the text of the source: active = GI50 up to about 1.1 µM and inactive = higher.
readout_label: GI50

query: Give GI50; test system NCI-H460; molecule C=C1C(=O)O[C@H]2[C@H]3O[C@@H](C[C@@H]12)[C@@]1(C)CC[C@H](O1)[C@H](C)CCC[C@H]3C
result: 1.76 µM (inactive)

query: Retrieve GI50 on NCI-H460; query CCN(CC)c1ccc2cc(-c3nnc(-c4ccccc4)[nH]3)c(=O)oc2c1
result: 82 µM (inactive)

query: // output GI50; input CN(NC(=O)c1ccco1)C1=NCCCCN1 ; system NCI-H460
result: > 100 µM (inactive)

query: Provide the reported GI50 (system: NCI-H460) for COC(=O)C(CC(C)C)NC(=O)NC12CC3CC(CC(F)(C3)C1)C2 (stereo not given)
result: > 100 µM (inactive)

query: State GI50 (NCI-H460) of CC1OC(n2cc(C(F)(F)F)c(=O)[nH]c2=O)C=CC1=O (stereo not given) .
result: 23.5 µM (inactive)

---

- Tested on: HOP-62
- assay_details: NCI tumour cell line growth inhibition, 48 h
Calls of active or inactive are those of the source. Rule as the data show it: active = GI50 up to about 1.1 µM and inactive = higher.
The categories you may choose from are active, inactive

query: Please share the test call associated with O=C(O)C1(Cc2ccc3c(c2)CCC3)Cc2ccccc2C1 .
result: inactive

query: What outcome does the record of this test show for Nc1ncnc2c1ncn2C1OC(CO)=CC1O (configuration not stated) ?
result: inactive

query: Write down the call the test reported for this compound. Item: Cc1cc(NS(=O)(=O)c2ccc(Nc3c4ccccc4nc4ccc(C(=O)Nc5ccc(S(=O)(=O)N=C(N)N)cc5)cc34)cc2)no1
result: inactive

query: What did this assay record as the result for C/C(=C\CNc1ncnc2c1ncn2CCC#N)CO ?
result: inactive

query: Which outcome was assigned to Cc1cc(C)c2c(n1)S(=O)(=O)N(CCCN1CCN(c3cccc(Cl)c3)CC1)C(C(=O)c1ccccc1)=C2O in this test?
result: inactive

query: Fill in: this test's call for CC(C)(C)OC(=O)N1CCCC1=O is ___
result: inactive

query: Which outcome was entered for the compound S=C1Cc2c(-c3ccccc3)cc(-c3ccc(Cl)cc3)nc2-c2ccccc2N1 in this test?
result: inactive

query: What call does the record list for NC(=O)C1=C(c2ccccc2)c2ccccc2C1=O ?
result: inactive

query: Which result was noted for this compound in the test: COc1cc2c(c(OC)c1OC)-c1ccc(SC)c(=O)cc1[C@@H](NCc1ccc(C#N)cc1)CC2
result: active

query: Field: outcome | Entry: O=C1Nc2ccccc2N=CC1NC(=O)C(c1ccccc1)c1ccccc1 (configuration not stated)
result: inactive

query: Called result for CCC(=O)NC(Nc1ccc(O)cc1)(C(F)(F)F)C(F)(F)F
result: inactive

query: # fetch the recorded call for O=C(Nc1ccccc1)n1cc(-c2ccccn2)c(N2CCOCC2)n1 here
result: inactive

query: Would you mind telling me which call this test gave Cc1cccc(CNc2[nH]cnc3nncc2-3)c1 ?
result: inactive

query: Please indicate how the test categorized CC(=O)OCC1OC(N2C(=O)NC(=O)C3C=C4CCCCC4=CC32)CC1OC(C)=O (configuration not stated) .
result: inactive

query: Hi, sorry to bother you, what did the test record for COc1cc(OC)c(C(=O)c2cccs2)cc1N ?
result: inactive

query: For N#CC(c1ccccc1)c1cccc2ccccc12 (configuration not stated) , what call appears in the results of this test?
result: inactive

query: Please share the test call associated with CCOc1ccc(NC(=O)/C(=N\NC(C)(C)C)C2C(=O)Nc3ccccc3[S+]2[O-])cc1 (configuration not stated) .
result: inactive

---

- System: MOLT-4
- assay_details: NCI tumour cell line growth inhibition, 48 h
Activity calls are given as the source filed them. No stated cut-off is given here; in the data, active = GI50 up to about 1.1 µM and inactive = higher.
readout_label: GI50

query: Give the observed GI50 of CC1=NN(C(=O)CC(=O)Nc2cccc(Cl)c2)C(=O)C1/N=N/c1ccc(C(=O)O)cc1 (stereo unspecified) for MOLT-4.
result: 78.5 µM (inactive)

query: GET GI50 | system: MOLT-4 | item: CCOC(=O)C1=C(C)NC(C)=C(C(=O)OCC)C1c1ccc(C)cc1
result: 25.9 µM (inactive)

query: Recall the reported GI50 of CN1C/C(=C\c2ccccc2)C2=NN(C(N)=S)[C@H](c3ccccc3)[C@@H]2C1 when tested on MOLT-4.
result: 89.1 µM (inactive)

query: // output GI50; input Cc1c(C)n(-c2ccccc2)c2nc(S(C)(=O)=O)nc(S(C)(=O)=O)c12 ; system MOLT-4
result: 1.48 µM (inactive)

query: Under MOLT-4: report GI50 of COC(=O)[C@]12CC[C@H]3CN(S(=O)(=O)c4ccc(C)cc4)[C@H]([C@H]31)[C@H](c1ccco1)N2S(=O)(=O)c1ccc(C)cc1 .
result: 31.1 µM (inactive)

query: Provide the reported GI50 (system: MOLT-4) for O=[N+]([O-])c1c2nc3n(c2cc2c1nc1n2CCC1)CCC3
result: > 100 µM (inactive)

query: Return reported GI50 for target or system MOLT-4, item O=c1c2cc(I)ccc2nc(S)n1Cc1ccccc1 .
result: > 100 µM (inactive)

query: Report value only: GI50, MOLT-4, Cc1cc(C[C@H]2O[C@@H]3OC(C)(C)O[C@@H]3[C@H]3OC(C)(C)O[C@H]32)c2ccccc2n1
result: 31.8 µM (inactive)

query: Lab note: MOLT-4 assay, enter GI50 for COC(=O)c1ccc(/C=C2\Cc3ccccc3C2=O)cc1 here
result: > 100 µM (inactive)

query: GET GI50 where system = MOLT-4 and item = N#CC(c1ccccc1)N(CCOCCOCCN(C(=O)c1ccccc1)C(C#N)c1ccccc1)C(=O)c1ccccc1 (stereo unspecified)
result: 32.2 µM (inactive)

query: Recall the reported GI50 of CCc1n[nH]c(=O)n1CCCCCCCCn1c(CC)n[nH]c1=O on MOLT-4 and write it down.
result: > 100 µM (inactive)

---

- Tested on: Malme-3M
- assay_details: NCI tumour cell line growth inhibition, 48 h
Activity calls are given as the source filed them. Cut-off read from the data, not from the text of the source: active = GI50 up to about 1.1 µM and inactive = higher.
Would you mind telling me the reported GI50 of each entry?

query: Name the recorded GI50 of the item COc1ccc2c(c1OC)OC[C@@H](C1=CC(=O)C=C(O)C1=O)C2 in your answer.
result: 12 µM (inactive)

query: For the molecule C=C(C)C1CC=C(C)C2(C1)OCC(C)(C)C(C)O2 (stereo unspecified) , give its reported GI50.
result: 14.5 µM (inactive)

query: Output GI50 of NC(=O)C(=O)N/N=C1\C(=O)N(c2ccc(Cl)cc2Cl)C(=O)C1C(=O)Nc1ccc(Cl)cc1Cl (stereo unspecified)
result: > 100 µM (inactive)

query: Supply GI50 value. Item: CSc1nc(Br)nc2ncn(C3CC(Oc4ccc(C)cc4)C(COc4ccc(C)cc4)O3)c12 (stereo unspecified)
result: > 100 µM (inactive)

query: Answer with the recorded GI50 for the molecule listed here: CCCCCCCCCCC1OC([C@@H](O)CC[C@H](O)C2CC[C@@H](CCCCCCCC(O)CC3=CC(C)OC3=O)O2)CCC1O (stereo partly specified)
result: 14 µM (inactive)

query: Answer with the recorded GI50 of O=[N+]([O-])c1c2nc3n(c2cc2c1nc1n2CCC1)CCC3 only.
result: 93.1 µM (inactive)

query: Query GI50 for C=C1C(=O)O[C@H]2[C@H]3O[C@@H](C[C@@H]12)[C@@]1(C)CC[C@H](O1)[C@H](C)CCC[C@H]3C
result: 1.72 µM (inactive)

query: Name the recorded GI50 of the item COc1ccc2c(c1OC)OCC(CN(C)C)C2=O (stereo unspecified) in your answer.
result: 18.5 µM (inactive)

query: Using known records, supply GI50 for Cc1ccc(N/C(Sc2ccccc2)=C(/C(Cl)=C(Cl)Cl)[N+](=O)[O-])c(C)c1
result: 17.5 µM (inactive)

query: Input COc1ccccc1/N=N/c1c(-c2ccccc2)nn(C(=O)CC(=O)Nc2cccc(C)c2)c1-c1ccccc1 , output reported GI50.
result: 45.6 µM (inactive)

query: # return recorded GI50 for input Cc1cc(NS(=O)(=O)c2ccc(Nc3c4ccccc4nc4ccc(C(=O)Nc5ccc(S(=O)(=O)N=C(N)N)cc5)cc34)cc2)no1
result: > 100 µM (inactive)

query: # return recorded GI50 for entry N#CC(c1ccc(Cl)cc1)c1cccc(Cl)n1 (stereo unspecified)
result: 74.5 µM (inactive)

query: Return reported GI50. Input molecule: O=c1c2c3c(sc2nc2n1NC=NN2)CCCC3
result: 21.4 µM (inactive)

query: Using the record for O=C(c1ccco1)N(C(=O)N1CCCCC1)c1ccccc1 , state its measured GI50.
result: 41.2 µM (inactive)

query: Supply recorded GI50 for O=c1ccn([C@@H]2C[C@@H]2CO)c(=O)[nH]1 here.
result: > 100 µM (inactive)

query: Give the reported value of GI50 for this record: Cc1cc(C[C@H]2O[C@@H]3OC(C)(C)O[C@@H]3[C@H]3OC(C)(C)O[C@H]32)c2ccccc2n1
result: 64.9 µM (inactive)

query: Hello, please tell me recorded GI50 for this one: Cc1c(Cl)ccc2[s+]snc12
result: 49.8 µM (inactive)

query: Please indicate GI50 recorded for C=C(C)C1CC=C(C(=O)O)CC1 (stereo unspecified)
result: 809 µM (inactive)

query: Answer with reported GI50 of COC(=O)C1=C(C(=O)OC)SC2(S1)C1=C(CCCC1)SC(C(=O)OC)=C2C(=O)OC
result: 11.4 µM (inactive)

query: Kindly indicate its recorded GI50. Item: COc1ccc(C(=O)Nc2ccc(S(=O)(=O)NCC(=O)O)cc2)cc1
result: > 100 µM (inactive)

query: Fill in GI50 for record c1ccc(CSCCC(SCc2ccccc2)SCc2ccccc2)cc1
result: > 10 µM (inactive)

query: Using known records, supply GI50 for O=C(O)CN1C=C(C(=O)c2cc3ccccc3n2S(=O)(=O)c2ccccc2)CCC1
result: 28.4 µM (inactive)

query: Identify measured GI50 corresponding to Cc1cccc(CNc2[nH]cnc3nncc2-3)c1
result: > 100 µM (inactive)

query: For the molecule COc1ccc(C2OC(c3ccncc3)=NN2C)cc1F (stereo unspecified) , report GI50.
result: > 100 µM (inactive)

query: Note down GI50 recorded for Cc1ccccc1NC(=O)C(=O)CC(=O)c1ccc([N+](=O)[O-])cc1
result: > 100 µM (inactive)

query: For the molecule CCN(CC)CC/N=C\c1c(O)c(O)c(C(C)C)c2cc(C)c(-c3c(C)cc4c(C(C)C)c(O)c(O)c(/C=N/CCN(CC)CC)c4c3O)c(O)c12 , give its reported GI50.
result: 4.16 µM (inactive)
